- targetOfAssay: Sho1, P40073
- Sequence (P40073 287-367): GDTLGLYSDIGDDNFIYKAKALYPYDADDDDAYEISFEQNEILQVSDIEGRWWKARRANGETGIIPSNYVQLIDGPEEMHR
- assayText: SPOT array
- setupConditions: median of control spots 1148
propertyName: SPOT intensity

- binder: "GQYRRTIVIPRRFFT"
  SPOT intensity: 124

a. QLMKNLPKIPLLNDI
b. RKRAPTPPAPSRSEK
c. APERAVPILPPRNNV
### Prompt Output the entries ranked by SPOT intensity from maximum down to minimum. Rank them, then answer with their labels in that order.
### Response a, b, c
